Biological target: T1, canine NGF tagged at the C-terminus with the Flag tag (canine, UniProt A0A8I3PYI3 122-241)
T1 construct: mature; Expressed with baculovirus technology; also called feline NGF (processed form identical)
T1 sequence (A0A8I3PYI3 entry or part of it): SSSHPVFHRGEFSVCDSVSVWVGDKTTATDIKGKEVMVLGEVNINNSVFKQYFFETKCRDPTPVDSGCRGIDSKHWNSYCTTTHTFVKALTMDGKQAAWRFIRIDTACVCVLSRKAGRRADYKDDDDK
Experiment: SPR off-rate screen, Fab-SASA on BSA chip
pKd: −log10 of the molar value.
Recorded pKd values for a group of binders are listed next.
metric: pKd

1. felinized clone 101 Fab-SASA variant N31Q (VL) (Fab, V domains shown, not shown: small tags and cut ends) VH: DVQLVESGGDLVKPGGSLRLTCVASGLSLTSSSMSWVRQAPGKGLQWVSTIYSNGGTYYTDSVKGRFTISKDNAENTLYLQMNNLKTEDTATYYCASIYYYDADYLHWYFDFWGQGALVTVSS VL: EIQMTQSPTSLSASVGDRVTITCRASEGISQNLSWYQQTPGKAPKLLIYATSNLHSGVPSRFSGSGSGTDFTLTISSLQPEDFATYYCQQGYKWPLTFGGGTKLEITR	8.83
2. felinized clone 101 Fab-SASA variant T60S (VH) (Fab, V domains shown, not shown: small tags and cut ends) VH: DVQLVESGGDLVKPGGSLRLTCVASGLSLTSSSMSWVRQAPGKGLQWVSTIYSNGGTYYSDSVKGRFTISKDNAENTLYLQMNNLKTEDTATYYCASIYYYDADYLHWYFDFWGQGALVTVSS VL: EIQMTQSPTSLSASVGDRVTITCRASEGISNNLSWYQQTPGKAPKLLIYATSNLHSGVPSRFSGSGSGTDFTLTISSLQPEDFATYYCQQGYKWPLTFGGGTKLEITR	8.75
3. felinized clone 101 Fab-SASA variant R24F (VL) (Fab, V domains shown, not shown: small tags and cut ends) VH: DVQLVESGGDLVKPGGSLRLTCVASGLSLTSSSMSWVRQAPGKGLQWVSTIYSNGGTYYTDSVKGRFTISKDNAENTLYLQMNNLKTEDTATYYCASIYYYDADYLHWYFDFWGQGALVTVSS VL: EIQMTQSPTSLSASVGDRVTITCFASEGISNNLSWYQQTPGKAPKLLIYATSNLHSGVPSRFSGSGSGTDFTLTISSLQPEDFATYYCQQGYKWPLTFGGGTKLEITR	8.64

Cited source: patent US20250011410A1
